Tested on: Pseudomonas aeruginosa ATCC 9027
Assay: ≥ marks a high value that may be exact or a test limit, other limits are often not marked, values filed in µg/mL are converted to µM
Can you tell me MIC for the items I'm about to list?

| COMPOUND | MIC |
| --- | --- |
| CC[C@H](C)[C@H](NC(=O)[C@H](CO)NC(=O)[C@@H]1CCCN1C(=O)[C@H](CC(C)C)NC(=O)[C@@H](NC(=O)[C@H](CO)NC(=O)CNC(=O)[C@H](CC(C)C)NC(=O)[C@@H](NC(=O)[C@H](CO)NC(=O)CNC(=O)[C@H](CC(C)C)NC(=O)[C@H](CC(C)C)NC(=O)CNC(=O)[C@H](CC(C)C)NC(=O)[C@@H](N)Cc1ccccc1)C(C)C)C(C)C)C(=O)N[C@@H](Cc1ccccc1)C(=O)N[C@@H](CCCCN)C(N)=O [FLGLLGSVLGSVLPSIFK] | > 54.1 µM |
| CC[C@H](C)[C@H](N)C(=O)N[C@@H](Cc1cnc[nH]1)C(=O)N[C@@H](CCCCN)C(=O)N[C@@H](CC(C)C)C(=O)N[C@H](C(=O)N[C@@H](CCCCN)C(=O)N[C@@H](CC(C)C)C(=O)N[C@@H](Cc1c[nH]c2ccccc12)C(=O)N[C@@H](CC(C)C)C(=O)N[C@@H](CC(N)=O)C(=O)N[C@@H](CC(C)C)C(=O)NCC(=O)N[C@@H](CCCCN)C(=O)N[C@@H](CCCCN)C(=O)N[C@@H](Cc1ccccc1)C(=O)O)C(C)C [IHKLVKLWLNLGKKF] | > 64 µM |
| CC[C@H](C)[C@H](NC(=O)[C@H](CC(=O)O)NC(=O)[C@H](CS)NC(=O)[C@@H](NC(=O)[C@@H](N)C(C)C)[C@@H](C)O)C(=O)N[C@@H](CC(C)C)C(=O)N[C@@H](CO)C(=O)N[C@H](C(=O)N[C@@H](CCC(=O)O)C(=O)N[C@@H](C)C(=O)N[C@@H](CCCCN)C(=O)NCC(=O)N[C@H](C(=O)N[C@@H](CCCCN)C(=O)N[C@@H](CC(C)C)C(N)=O)C(C)C)C(C)C [VTCDILSVEAKGVKL] | > 63.5 µM |

Okay, next one:
Task: I am curious: what MIC value has been reported for CC[C@H](C)[C@H](NC(=O)[C@H](CC(=O)O)NC(=O)[C@H](Cc1ccccc1)NC(=O)[C@H](CC(C)C)NC(=O)CN)C(=O)N[C@H](C(=O)N[C@@H](CCCCN)C(=O)N[C@@H](CCCCN)C(=O)N[C@@H](C)C(=O)N[C@@H](C)C(=O)N[C@@H](CCC(=O)O)C(=O)N[C@@H](CO)C(=O)N[C@@H](Cc1ccccc1)C(N)=O)[C@@H](C)CC [GLFDIIKKAAESF] ?
Output: > 356 µM

---

Test system: Salmonella enterica subsp. enterica serovar Pullorum C79-13
MEASUREMENT_TYPE: MIC (µM)
One number for each entry, in µM.

// known answers, use as guide
| COMPOUND_STRUCTURE | EXPERIMENTAL_TARGET | UNITS_TEXT | NUMERIC_VALUE |
| --- | --- | --- | --- |
| CC[C@H](C)[C@H](NC(=O)[C@H](Cc1c[nH]c2ccccc12)NC(=O)[C@H](CCCCN)NC(=O)[C@H](Cc1c[nH]c2ccccc12)NC(=O)[C@@H](NC(=O)[C@H](Cc1c[nH]c2ccccc12)NC(=O)CNC(=O)[C@@H](NC(=O)[C@H](CCCCN)NC(=O)[C@H](CCCCN)NC(=O)[C@H](Cc1c[nH]c2ccccc12)NC(=O)[C@@H](N)CCCN=C(N)N)[C@@H](C)CC)C(C)C)C(N)=O | Salmonella enterica subsp. enterica serovar Pullorum C79-13 | µM | 1 |
| CC(C)C[C@H](NC(=O)CNC(=O)[C@H](CC(C)C)NC(=O)[C@H](Cc1c[nH]c2ccccc12)NC(=O)[C@H](CC(C)C)NC(=O)CNC(=O)[C@H](CC(C)C)NC(=O)[C@H](CCCCN)NC(=O)[C@H](CCCCN)NC(=O)CN)C(=O)N[C@@H](CCCCN)C(=O)N[C@@H](CCCCN)C(=O)NCC(N)=O | Salmonella enterica subsp. enterica serovar Pullorum C79-13 | µM | 16 |

Okay, next one:
Task: I am curious: what MIC value has been reported for "CC(C)C[C@H](NC(=O)[C@H](CCCCN)NC(=O)[C@H](CCCCN)NC(=O)[C@H](C)NC(=O)[C@@H](NC(=O)[C@H](CCCCN)NC(=O)[C@H](CO)NC(=O)[C@H](CC(C)C)NC(=O)[C@H](Cc1c[nH]c2ccccc12)NC(=O)[C@H](CC(C)C)NC(=O)[C@H](CCCCN)NC(=O)[C@H](CCCCN)NC(=O)[C@H](C)NC(=O)[C@@H](NC(=O)[C@H](CCCCN)NC(=O)[C@H](CO)NC(=O)[C@H](CC(C)C)NC(=O)[C@@H](N)Cc1c[nH]c2ccccc12)[C@@H](C)O)[C@@H](C)O)C(N)=O" ?
Output: 16

---

Let's go through some recorded MIC values for Staphylococcus aureus ATCC 25923 together.

| COMPOUND_STRUCTURE | EXPERIMENTAL_TARGET | MEASUREMENT_TYPE | RESULT |
| --- | --- | --- | --- |
| C[C@@H](O)[C@H](NC(=O)[C@H](CO)NC(=O)[C@H](Cc1ccccc1)NC(=O)[C@@H](N)Cc1ccccc1)C(=O)N[C@@H](CO)C(=O)N[C@H]1CSSC[C@@H](C(=O)O)NC(=O)CNC(=O)[C@H](CO)NC(=O)[C@H](CCCN=C(N)N)NC1=O | Staphylococcus aureus ATCC 25923 | MIC | > 91.4 µM |
| CC(C)C[C@H](NC(=O)[C@H](C)NC(=O)[C@H](CCCN=C(N)N)NC(=O)[C@H](C)NC(=O)[C@H](Cc1c[nH]c2ccccc12)NC(=O)CNC(=O)[C@H](CCCN=C(N)N)NC(=O)[C@@H](N)CCCN=C(N)N)C(=O)N[C@@H](C)C(=O)N[C@@H](Cc1ccccc1)C(=O)N[C@@H](C)C(=O)N[C@@H](Cc1ccccc1)C(=O)NCC(=O)N[C@@H](CCCN=C(N)N)C(N)=O | Staphylococcus aureus ATCC 25923 | MIC | > 30 µM |

Task: I am curious: what MIC value has been reported for "CC(C)C[C@H](NC(=O)[C@@H](NC(=O)[C@H](C)NC(=O)[C@H](C)NC(=O)[C@H](CCCN=C(N)N)NC(=O)CNC(=O)CNC(=O)[C@H](CCCN=C(N)N)NC(=O)[C@@H](NC(=O)[C@H](CCCN=C(N)N)NC(=O)[C@H](C)NC(=O)[C@H](Cc1ccc(O)cc1)NC(=O)[C@H](Cc1ccc(O)cc1)NC(=O)[C@H](CCCCN)NC(=O)[C@H](CCC(N)=O)NC(=O)[C@@H](N)CC(C)C)C(C)C)C(C)C)C(=O)N[C@@H](CO)C(=O)O" ?
Output: > 157 µM

---

System: Staphylococcus aureus ATCC 25923
Can you tell me MIC for the items I'm about to list?

| COMPOUND_STRUCTURE | EXPERIMENTAL_TARGET | RESULT |
| --- | --- | --- |
| CC[C@H](C)[C@H](NC(=O)[C@H](CC(=O)O)NC(=O)[C@H](Cc1ccccc1)NC(=O)[C@H](CC(C)C)NC(=O)CN)C(=O)N[C@H](C(=O)N[C@@H](CCCCN)C(=O)N[C@@H](CCCCN)C(=O)N[C@@H](C)C(=O)N[C@@H](C)C(=O)N[C@@H](CCC(=O)O)C(=O)N[C@@H](CO)C(=O)N[C@@H](Cc1ccccc1)C(N)=O)[C@@H](C)CC | Staphylococcus aureus ATCC 25923 | > 356 µM |
| CC[C@H](C)[C@H](NC(=O)CN)C(=O)N[C@@H](Cc1ccccc1)C(=O)N[C@@H](CO)C(=O)N[C@@H](CCCCN)C(=O)N[C@@H](CC(C)C)C(=O)N[C@@H](C)C(=O)NCC(=O)N[C@@H](CCCCN)C(=O)N[C@@H](CCCCN)C(=O)N[C@H](C(=O)N[C@@H](CCCCN)C(=O)N[C@@H](CC(N)=O)C(=O)N[C@@H](CC(C)C)C(=O)N[C@@H](CC(C)C)C(=O)N[C@H](C(=O)N[C@@H](CO)C(=O)NCC(=O)N[C@@H](CC(C)C)C(=O)N[C@@H](CCCCN)C(=O)NCC(N)=O)[C@@H](C)CC)[C@@H](C)CC | Staphylococcus aureus ATCC 25923 | > 100 µM |

Task: I am curious: what MIC value has been reported for "CC(C)C[C@H](NC(=O)CNC(=O)[C@@H]1CCCN1C(=O)[C@H](CC(C)C)NC(=O)[C@@H](N)Cc1ccccc1)C(=O)N[C@@H](CCC(=O)O)C(=O)N[C@@H](CS)C(=O)N[C@H](C(=O)N[C@@H](Cc1c[nH]c2ccccc12)C(=O)O)C(C)C" ?
Output: > 188 µM
